Source: the supplement of paper PMC6757056

Recorded normalized RNA/DNA level with ligand (log10) for the following variants
B1: library; a variant is named by its letters at N, in order (parent)
chain: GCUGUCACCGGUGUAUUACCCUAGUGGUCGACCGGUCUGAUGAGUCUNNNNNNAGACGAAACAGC

Variants of: B1
Experiment: normalized RNA/DNA level with ligand (relative to sTRSVctl = 100) (log10 (% of sTRSVctl)); ligand: hypoxanthine (xanthine aptamer); higher = less ribozyme self-cleavage, higher mRNA level
Conditions: ligand concentration (+) RNA-Seq: 5 mM, HEK293T, reporter: mCherry (pCS4076), ligand present: yes
// return a plain number; no unit text

UGCCAA; 1.91

Return the recorded normalized RNA/DNA level with ligand (log10) value; entry: CGAGCG
1.94

Return the recorded normalized RNA/DNA level with ligand (log10) value; entry: UCCUUG
1.91

Return the recorded normalized RNA/DNA level with ligand (log10) value; entry: AUACAG
1.81

Return the recorded normalized RNA/DNA level with ligand (log10) value; entry: UGGCGU
1.96

Return the recorded normalized RNA/DNA level with ligand (log10) value; entry: CACAGG
1.77

Return the recorded normalized RNA/DNA level with ligand (log10) value; entry: GCUAUG
1.86
